test system: U87 tumor; assay: PET imaging and tissue biodistribution in U87 tumor-bearing mice; assay type: in vivo, mouse; set-up: unit not given here; settings: untitled table; radiolabel and time not given
Experimental readout: Biodistribution: Saliv. Gland
// print number alone

Prompt: Name the recorded Biodistribution: Saliv. Gland for N#C[C@@H]1CCCN1C(=O)CNC(=O)c1ccnc2ccc(OCCCN3CC4CN(C(=O)C(CCNC(=O)c5ccc(F)nc5)NC(=O)CN5CCN(CC(=O)O)CCN(CC(=O)O)CCN(CC(=O)O)CC5)CC4C3)cc12 (some centres unmarked) [SRI-08-37] .
Completion: 11.70

Prompt: Give the measured Biodistribution: Saliv. Gland of N#C[C@@H]1CCCN1C(=O)CNC(=O)c1ccnc2ccc(OCCCNC(=O)C(CCNC(=O)c3ccc(F)nc3)NC(=O)CN3CCN(CC(=O)O)CCN(CC(=O)O)CCN(CC(=O)O)CC3)cc12 (some centres unmarked) [SRI-08-15] .
Completion: 8.95

Prompt: Please report the recorded Biodistribution: Saliv. Gland for N#CC1CCCN1C(=O)CNC(=O)c1ccnc2ccc(OCCCNC(=O)CCc3cn(CC[C@H](NC(=O)c4ccc(F)nc4)C(=O)NCCNC(=O)CN4CCN(CC(=O)O)CCN(CC(=O)O)CCN(CC(=O)O)CC4)nn3)cc12 (some centres unmarked) [SRI-07-56] .
Completion: 7.59

Prompt: Quick one: Biodistribution: Saliv. Gland of N#CC1CCCN1C(=O)CNC(=O)c1ccnc2ccc(OCCCNC(=O)CCc3cn(CCCC[C@H](NC(=O)c4ccc(F)nc4)C(=O)NCCNC(=O)CN4CCN(CC(=O)O)CCN(CC(=O)O)CCN(CC(=O)O)CC4)nn3)cc12 (some centres unmarked) [SRI-08-35] ?
Completion: 7.49

Prompt: Reported Biodistribution: Saliv. Gland for N#C[C@@H]1CCCN1C(=O)CNC(=O)c1ccnc2ccc(OCCCNC(=O)CCOCCOCCOCCNC(=O)C(CCNC(=O)c3ccc(F)nc3)NC(=O)CN3CCN(CC(=O)O)CCN(CC(=O)O)CCN(CC(=O)O)CC3)cc12 (some centres unmarked) [SRI-08-27] : what is it?
Completion: 6.40

---

biological target: FAP (Homo sapiens (Human)); experiment: FAP inhibition assay (recombinant enzyme, Z-Gly-Pro-AMC substrate); assay type: biochemical; conditions: Table 3
Sequence (Q12884 whole entry): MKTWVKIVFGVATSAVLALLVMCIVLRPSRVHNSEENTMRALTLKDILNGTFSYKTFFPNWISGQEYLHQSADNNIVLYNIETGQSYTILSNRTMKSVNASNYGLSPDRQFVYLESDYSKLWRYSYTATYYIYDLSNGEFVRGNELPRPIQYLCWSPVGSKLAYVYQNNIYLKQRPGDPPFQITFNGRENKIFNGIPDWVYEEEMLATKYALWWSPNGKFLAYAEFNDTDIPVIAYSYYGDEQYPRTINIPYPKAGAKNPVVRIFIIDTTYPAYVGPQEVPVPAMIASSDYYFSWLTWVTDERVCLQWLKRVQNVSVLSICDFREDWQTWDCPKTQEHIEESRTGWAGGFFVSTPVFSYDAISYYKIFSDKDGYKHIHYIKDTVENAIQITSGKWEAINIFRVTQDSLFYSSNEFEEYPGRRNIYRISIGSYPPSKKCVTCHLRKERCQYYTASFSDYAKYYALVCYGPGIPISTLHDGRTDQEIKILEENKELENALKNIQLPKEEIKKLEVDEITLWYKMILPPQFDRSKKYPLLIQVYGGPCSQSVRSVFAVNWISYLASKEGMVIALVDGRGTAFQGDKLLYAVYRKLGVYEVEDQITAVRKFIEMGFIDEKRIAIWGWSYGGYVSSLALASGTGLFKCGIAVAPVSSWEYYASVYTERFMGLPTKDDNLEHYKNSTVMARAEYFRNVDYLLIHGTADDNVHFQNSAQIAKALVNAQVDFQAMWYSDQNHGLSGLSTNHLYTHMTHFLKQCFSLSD
Each entry falls into one class according to its IC50; the ranges are low band = under 500 pM, middle band = from 500 pM up to 1000 pM, high band = 1000 pM and over

A selection of reference data follows.
N#C[C@@H]1CCCN1C(=O)CNC(=O)c1ccnc2ccc(OCCF)cc12    low band
N#C[C@@H]1CCCN1C(=O)CNC(=O)c1ccnc2ccc(OCCOCCNC(=O)[C@H](CCCCNC(=O)c3ccc(F)nc3)NC(=O)CN3CCN(CC(=O)O)CCN(CC(=O)O)CCN(CC(=O)O)CC3)cc12    high band

Prompt: Pick a category. Item: N#CC1CCCN1C(=O)CNC(=O)c1ccnc2ccc(OCCCNC(=O)CCc3cn(CCCC[C@H](NC(=O)CN4CCN(CC(=O)O)CCN(CC(=O)O)CC4)C(=O)NCCCOc4ccc5nccc(C(=O)NCC(=O)N6CCC[C@H]6C#N)c5c4)nn3)cc12 (some centres unmarked)
Completion: low band

Prompt: State the band of N#C[C@@H]1CCCN1C(=O)CNC(=O)c1ccnc2ccc(OCCCNC(=O)[C@@H](CC(=O)O)NC(=O)[C@@H](CC(=O)O)NC(=O)c3ccc(F)nc3)cc12
Completion: high band

Prompt: GET /class?item= N#C[C@@H]1CCCN1C(=O)CNC(=O)c1ccnc2ccc(F)cc12
Completion: low band

Prompt: Record N#C[C@@H]1CCCN1C(=O)CNC(=O)c1ccnc2ccc(OCCCNC(=O)CCOCCOCCOCCOCCNC(=O)[C@H](CCCCNC(=O)c3ccc(F)nc3)NC(=O)CN3CCN(CC(=O)O)CCN(CC(=O)O)CCN(CC(=O)O)CC3)cc12 — which class?
Completion: middle band

Prompt: # bin lookup: classify N#C[C@@H]1CCCN1C(=O)CNC(=O)c1ccnc2c(F)cccc12 by its IC50
Completion: high band

Prompt: Given N#C[C@@H]1CCCN1C(=O)CNC(=O)c1ccnc2ccc(OCCCNC(=O)[C@@H](CC(=O)O)NC(=O)[C@@H](CC(=O)O)NC(=O)c3cccc(F)n3)cc12 , name the class its IC50 places it in.
Completion: high band

Prompt: Just checking, what class would you give N#C[C@@H]1CC(F)(F)CN1C(=O)CNC(=O)c1ccnc2ccc(F)cc12 here?
Completion: low band

Prompt: # bin label for N#C[C@@H]1CCCN1C(=O)CNC(=O)c1ccnc2cccc(F)c12
Completion: middle band
